Attribution: paper PMC6471066

Test system: epimastigotes Trypanosoma cruzi (Y strain)
Measurement Protocol: Trypanocidal capacity assay (Alamar Blue)
Format: cell-based
Setup Conditions: Trypanosoma cruzi, 96 h, epimastigote form
pIC50: −log10 of the molar value.
Overview of reported pIC50 across a group of compounds:
Property Label: pIC50

> print(dat)
                                   compound  lt.gt.eq  reported.value
1  C=C(C)[C@H]1CC(=O)[C@]2(C)C/C=C(\C)CC/C=C(\C)CC[C@@H]12         <            4.00
2  C=C(C)[C@H]1C[C@H](O)[C@]2(C)C[C@@H]3O[C@@]3(C)CC/C=C(\C)CC[C@@H]12         <            4.00
3  C=C(C)[C@H]1CC[C@]2(C)C[C@@H]3O[C@@]3(C)CC/C=C(\C)CC[C@@H]12         =            4.45
4  C=C(C)[C@H]1CC(=O)[C@]2(C)C[C@@H]3O[C@@]3(C)CC/C=C(\C)CC[C@@H]12         <            4.00
5  C=C(C)C1CC(=O)C2(C)CC=C(C)CCC=C(C)CCC12 (stereo not shown)         <            4.00
6  O=C(Cn1ccnc1[N+](=O)[O-])NCc1ccccc1 [Benznidazole, reference compound]         =            5.16
7  C=C(C)C1CCC2(C)CC=C(C)CCC=C(C=O)C(O)CC12 (stereo not shown)         =            5.25
